species on record: Rattus norvegicus; assay: Selectivity for rat muscarinic M1 receptor over rat muscarinic M3 receptor by calcium mobilization assay
observable: Ratio IC50

CCN1CCN(c2ccc(NC(=O)Cc3ccc(F)cc3)cc2Cl)CC1 :: > 26
CCN1CCN(c2ccc(NC(=O)COc3ccccc3)cc2Cl)CC1 :: > 45

Proceed to the following item.
Exercise: # Ratio IC50 lookup, item `CCN1CCN(c2ccc(NC(=O)C3CCCCC3)cc2Cl)CC1`
Key: > 32

* * *

biological target: UniProtKB P10980; test: Antagonist activity at rat muscarinic M2 receptor expressed in CHO cells by calcium mobilization assay
Sequence (P10980 whole entry): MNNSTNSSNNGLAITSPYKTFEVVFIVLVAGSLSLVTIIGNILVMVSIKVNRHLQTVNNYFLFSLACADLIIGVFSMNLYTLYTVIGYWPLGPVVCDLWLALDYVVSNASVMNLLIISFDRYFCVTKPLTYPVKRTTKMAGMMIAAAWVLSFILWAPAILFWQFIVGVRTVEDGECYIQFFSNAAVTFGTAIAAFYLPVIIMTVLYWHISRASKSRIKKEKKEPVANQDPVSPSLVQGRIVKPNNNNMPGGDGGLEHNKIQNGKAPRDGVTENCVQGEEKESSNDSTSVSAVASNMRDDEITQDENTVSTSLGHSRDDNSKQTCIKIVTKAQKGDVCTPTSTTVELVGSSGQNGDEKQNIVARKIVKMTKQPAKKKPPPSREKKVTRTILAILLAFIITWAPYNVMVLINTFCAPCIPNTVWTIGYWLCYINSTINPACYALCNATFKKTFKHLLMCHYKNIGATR
What IC50 was measured for each of the following?

CCN1CCN(c2ccc(NC(=O)COCc3ccccc3)cc2Cl)CC1 :: > 150 µM
CCN1CCN(c2ccc(NC(=O)c3ccccc3)cc2Cl)CC1 :: > 150 µM

Proceed to the following item.
Exercise: # IC50 lookup, item `CCN1CCN(c2ccc(NC(=O)C3CCCCC3)cc2Cl)CC1`
Key: > 150 µM
